B1: Pistol ribozyme (parent)
chain: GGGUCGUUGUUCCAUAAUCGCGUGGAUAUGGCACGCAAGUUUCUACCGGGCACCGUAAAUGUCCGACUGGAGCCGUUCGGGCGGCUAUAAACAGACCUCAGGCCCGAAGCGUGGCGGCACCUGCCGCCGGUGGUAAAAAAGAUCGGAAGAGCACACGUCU

variants of: B1; assay: aptazyme ON/OFF ratio, guanine; higher = stronger switching; co-transcriptional cleavage with and without guanine
Consider the following variants and their measured aptazyme ON/OFF ratio readings.
Property Label: aptazyme ON/OFF ratio

variant_descriptor="U7C U8A G9C U10G C12A C13A" recorded_measurement=1.23
variant_descriptor="U7G U8G U10A U11G C12A C13G" recorded_measurement=1.15
variant_descriptor="U7G U8G G9A U10C U11A C13A" recorded_measurement=1.2
variant_descriptor="U8A G9C U10G U11C C12A C13G" recorded_measurement=1.12
variant_descriptor="U7C U8A G9U U10A C12U" recorded_measurement=1.19
variant_descriptor="U7A U8G G9C U10G C12U C13A" recorded_measurement=1.48
variant_descriptor="U7C U8A G9A U10C C12A" recorded_measurement=1.19
variant_descriptor="U8C U11G C12A C13U" recorded_measurement=1.16
variant_descriptor="U7G U8A U10G C12U" recorded_measurement=1.17
variant_descriptor="U7G U8C G9C U10G U11G C12G C13G" recorded_measurement=1.08
variant_descriptor="U8C G9U U10G U11G" recorded_measurement=2.19
variant_descriptor="U7G U8C U11C C12A C13U" recorded_measurement=1.46
variant_descriptor="U7A U8G G9U U11G C12G C13U" recorded_measurement=1.22
variant_descriptor="U7C U8C G9U U10A U11A C12U C13A" recorded_measurement=1.09
